- System: UACC-257 melanoma
- Test details: NCI-60 one-dose screen, 48 h
- Assay context: 10 µM unless noted
Compounds without any hit were thinned out: in the full panel of roughly 83,000, 20% have a hit. The source made the active and inactive calls. Rule for the calls: active = growth percent below 10; inactive = the rest.
Respond only with the outcome that fits, drawn from 1 for active, 0 for inactive

{"Molecule": "COc1cc(-c2ncn(/C=C\\c3nnco3)n2)cc(C(F)(F)F)c1", "Class label": 0}

Qu. Please state the recorded outcome for this molecule: `CC(C)n1nc(C#Cc2cccc(NC(=O)c3cccc(C(F)(F)F)c3)c2)c2c(N)ncnc21`
Ans. 1

Qu. For CC(C)CCC[C@@H](C)[C@H]1CCC2C3=CCn4c(=O)ccc(=O)n4C3CC[C@@]21C (stereo not given in full) , what call appears in the results of this test?
Ans. 1

Qu. In this assay, the call recorded for O=C1Nc2ccccc2SC1C1SC(=S)N(Cc2ccccc2)C1=O (stereo not given) was what?
Ans. 0

Qu. # lookup: test call for CCO/C=N/C1=C(C#N)C(c2ccc(OC)cc2)c2c(c3ccccc3n(C)c2=O)O1 (stereo not given)
Ans. 0

====

- System: KM12 colon
- Test details: NCI-60 one-dose screen, 48 h
- Assay context: 10 µM unless noted
This is part of a sample that, as a whole, favours compounds with a hit. Of some 83,000 tested, about 20% had one in any assay. The source made the active and inactive calls. The calls were made as follows: active = growth percent below 10; inactive = the rest.
Permitted responses: True for active, False for inactive

Here are 5 compounds together with their reported answers.
{"Compound": "COc1ccc(Oc2nc(Nc3ccc(N4CCCCC4)nc3)ncc2NC(=O)c2cc(OC)cc(OC)c2)cc1", "Class label": "False"}
{"Compound": "N[C@@H]1CCC[C@H]1NCCCCN1C(=O)c2cccc3cccc(c23)C1=O", "Class label": "False"}
{"Compound": "CC(C)c1ccc(NC(=O)Cc2ccc(Nc3ncnc4cc(-c5cnn(CCN(C)C)c5)ccc34)cc2)cc1", "Class label": "True"}
{"Compound": "OCCCCc1nccc2c1[nH]c1ccccc12", "Class label": "False"}
{"Compound": "COc1cc(C2C=C(c3cccc(NC(C)=O)c3)Nc3ncnn32)cc(OC)c1OC (centres undefined)", "Class label": "False"}

Qu. Dear colleague, could you share the recorded outcome for `O=S(=O)(NCCNc1cc(-c2c(-c3cccc(O)c3)nc3sccn23)ccn1)c1ccc(Cl)cc1` when you have a moment?
Ans. False

Qu. Which result was noted for this compound in the test: `CCOC(=O)c1ccc(NC(=O)CCCN(CC)CC)cc1`
Ans. False

Qu. Hey, what did the test say about `COc1ccc(C(=O)/C=C/c2cc3c(c(OC)c2)OCC(=O)N3)cc1` ?
Ans. False

Qu. // param item: `C=C1C(=O)O[C@H]2[C@H]1CC/C(Cn1cc(CNCCc3c[nH]c4ccc(Cl)cc34)nn1)=C\CC[C@@]1(C)O[C@@H]21` ; yields the recorded call
Ans. False

====

- System: T-47D breast
- Test details: NCI-60 one-dose screen, 48 h (100 = growth as untreated, 0 = no growth, -100 = all killed)
- Assay context: 10 µM unless noted
This is part of a sample that, as a whole, favours compounds with a hit. Of some 83,000 tested, about 20% had one in any assay.
In this section we review reported growth values for a set of compounds.
Field: numeric (%). Do not append units.

Examples with answers:
{"Compound": "Cc1nc(Nc2ccc(NC(=S)Nc3ccccc3)cc2)nc2nc(SCc3ccccc3)[nH]c(=O)c12", "Unit symbol": "%", "growth": 88.5}
{"Compound": "NS(=O)(=O)c1cn(-c2ncnc3nc[nH]c23)ccc1=O", "Unit symbol": "%", "growth": 76.7}
{"Compound": "CCN(CC)CCOC(=O)Nc1ccccc1Cl", "Unit symbol": "%", "growth": 98.6}

Qu. Quick one: growth for `CN1CCN(C2=C(Cl)C(=O)c3ccccc3C2=O)CC1` ?
Ans. 80.8

Qu. // query growth value for entry `COc1ccc(-c2nc3sccn3c2/C=C/C(=O)c2c[nH]c3ccccc23)cc1`
Ans. 56.1

Qu. I would be grateful if you could share the reported growth for `COC(=O)/C(=C\c1ccc(OC)cc1)C(=O)N1c2ccccc2Sc2ccccc21` .
Ans. 48.4
